Test system: KM12 colon
Assay: NCI-60 one-dose screen, 48 h (100 = growth as untreated, 0 = no growth, -100 = all killed)
Conditions: 10 µM unless noted
Compounds without any hit were thinned out: in the full panel of roughly 83,000, 20% have a hit.
Measurement kind: growth (%)
Please state the figure in %; there is no need to write the unit.

As a guide, the following entries are already answered.
>>> test_result("COc1ccc(Cn2cc(COc3cc(/C=C/C(=O)c4cc(OC)c(OC)c(OC)c4)ccc3OC)nn2)cc1")
15.8
>>> test_result("COc1cccc(-c2nc3sccn3c2-c2ccnc(NCCCNS(=O)(=O)c3ccc(F)cc3)n2)c1")
22.1

Assign growth to the following record: CC(=O)Nc1ccc(S(=O)(=O)NC(CCC(=O)Nc2ccc(Cl)cc2)C(=O)O)cc1 (centres undefined)
94.5

Assign growth to the following record: N#CC1=C(N)OC2=C(C(=O)CCC2)C1c1ccco1 (centres undefined)
110

Assign growth to the following record: O=C(O)c1ccc(-n2cc(CNc3ccc(C(F)(F)F)cc3)c(-c3ccccc3)n2)cc1
84.7
